These data points were gathered from ChEMBL document CHEMBL6109067.

Quick record of IC50 values for Procathepsin L (Homo sapiens, UniProt P07711).

Req: Form field: IC50 recorded for O=C(OC[C@H]1O[C@@H](OC(=O)c2cc(O)c(O)c(O)c2)[C@H](OC(=O)c2cc(O)c(O)c(O)c2)[C@@H](OC(=O)c2cc(O)c(O)c(O)c2)[C@@H]1O)c1cc(O)c(O)c(O)c1 with Procathepsin L (Homo sapiens, UniProt P07711) (enter value)
Resp: > 50 µM

Req: Try O=C(OC[C@H]1O[C@@H](OC(=O)c2cc(O)c(O)c(O)c2)[C@H](OC(=O)c2cc(O)c(O)c(O)c2)[C@@H](OC(=O)c2cc(O)c(O)c(O)c2)[C@@H]1F)c1cc(O)c(O)c(O)c1 next.
Resp: 7.23 µM
